ASSAY INFO: Selectivity index, ratio of IC50 for cytotoxicity against human HEK293T cells assessed to IC50 for antiplasmodial activity against synchronized ring stage Plasmodium falciparum 3D7 infected in human erythrocytes
Type: toxicity, cell-based
CONDITION LABEL: read-out: Ratio IC50
Threshold-based label: selectivity ratio under 50 gives Met, selectivity ratio not under 50 gives Not met.

## Input Hello, I'm reviewing records and need to know if selectivity ratio of O=C(NO)c1cnc(N2CCC3(CCN(Cc4cccnc4)C3)CC2)nc1 is below 50. Could you check?
## Output Not met

## Input Hello, I'm reviewing records and need to know if selectivity ratio of Cl.Cn1cc(CN2CCC3(CCN(c4ncc(C(=O)NO)cn4)CC3)C2)c2ccccc21 is below 50. Could you check?
## Output Met

## Input Hello, I'm reviewing records and need to know if selectivity ratio of O=C(NO)c1cnc(N2CCC3(CCN(Cc4ccsc4)C3)CC2)nc1 is below 50. Could you check?
## Output Met

## Input Hello, I'm reviewing records and need to know if selectivity ratio of O=C(NO)c1cnc(N2CCC3(CCN(Cc4ccoc4)C3)CC2)nc1 is below 50. Could you check?
## Output Met

## Input Hello, I'm reviewing records and need to know if selectivity ratio of O=C(NO)c1cnc(N2CCC3(CCN(Cc4ccnc5ccccc45)C3)CC2)nc1 is below 50. Could you check?
## Output Met

---

STUDY TARGET: Histone deacetylase 3/Nuclear receptor corepressor 2 (HDAC3/NCoR2) (Homo sapiens, UniProt O15379)
Sequence (O15379 whole entry): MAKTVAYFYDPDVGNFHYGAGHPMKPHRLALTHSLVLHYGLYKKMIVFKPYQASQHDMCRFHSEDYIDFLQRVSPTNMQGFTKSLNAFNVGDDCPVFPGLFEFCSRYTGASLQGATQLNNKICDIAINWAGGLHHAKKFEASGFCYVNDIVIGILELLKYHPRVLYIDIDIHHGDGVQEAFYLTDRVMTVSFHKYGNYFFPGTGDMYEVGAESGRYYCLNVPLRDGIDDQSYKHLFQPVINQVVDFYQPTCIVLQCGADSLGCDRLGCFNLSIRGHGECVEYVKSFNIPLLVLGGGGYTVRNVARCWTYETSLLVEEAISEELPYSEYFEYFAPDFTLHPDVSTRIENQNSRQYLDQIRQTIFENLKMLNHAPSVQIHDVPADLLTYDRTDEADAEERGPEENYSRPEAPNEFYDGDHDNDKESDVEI
Sequence (Q9Y618 whole entry, further chain): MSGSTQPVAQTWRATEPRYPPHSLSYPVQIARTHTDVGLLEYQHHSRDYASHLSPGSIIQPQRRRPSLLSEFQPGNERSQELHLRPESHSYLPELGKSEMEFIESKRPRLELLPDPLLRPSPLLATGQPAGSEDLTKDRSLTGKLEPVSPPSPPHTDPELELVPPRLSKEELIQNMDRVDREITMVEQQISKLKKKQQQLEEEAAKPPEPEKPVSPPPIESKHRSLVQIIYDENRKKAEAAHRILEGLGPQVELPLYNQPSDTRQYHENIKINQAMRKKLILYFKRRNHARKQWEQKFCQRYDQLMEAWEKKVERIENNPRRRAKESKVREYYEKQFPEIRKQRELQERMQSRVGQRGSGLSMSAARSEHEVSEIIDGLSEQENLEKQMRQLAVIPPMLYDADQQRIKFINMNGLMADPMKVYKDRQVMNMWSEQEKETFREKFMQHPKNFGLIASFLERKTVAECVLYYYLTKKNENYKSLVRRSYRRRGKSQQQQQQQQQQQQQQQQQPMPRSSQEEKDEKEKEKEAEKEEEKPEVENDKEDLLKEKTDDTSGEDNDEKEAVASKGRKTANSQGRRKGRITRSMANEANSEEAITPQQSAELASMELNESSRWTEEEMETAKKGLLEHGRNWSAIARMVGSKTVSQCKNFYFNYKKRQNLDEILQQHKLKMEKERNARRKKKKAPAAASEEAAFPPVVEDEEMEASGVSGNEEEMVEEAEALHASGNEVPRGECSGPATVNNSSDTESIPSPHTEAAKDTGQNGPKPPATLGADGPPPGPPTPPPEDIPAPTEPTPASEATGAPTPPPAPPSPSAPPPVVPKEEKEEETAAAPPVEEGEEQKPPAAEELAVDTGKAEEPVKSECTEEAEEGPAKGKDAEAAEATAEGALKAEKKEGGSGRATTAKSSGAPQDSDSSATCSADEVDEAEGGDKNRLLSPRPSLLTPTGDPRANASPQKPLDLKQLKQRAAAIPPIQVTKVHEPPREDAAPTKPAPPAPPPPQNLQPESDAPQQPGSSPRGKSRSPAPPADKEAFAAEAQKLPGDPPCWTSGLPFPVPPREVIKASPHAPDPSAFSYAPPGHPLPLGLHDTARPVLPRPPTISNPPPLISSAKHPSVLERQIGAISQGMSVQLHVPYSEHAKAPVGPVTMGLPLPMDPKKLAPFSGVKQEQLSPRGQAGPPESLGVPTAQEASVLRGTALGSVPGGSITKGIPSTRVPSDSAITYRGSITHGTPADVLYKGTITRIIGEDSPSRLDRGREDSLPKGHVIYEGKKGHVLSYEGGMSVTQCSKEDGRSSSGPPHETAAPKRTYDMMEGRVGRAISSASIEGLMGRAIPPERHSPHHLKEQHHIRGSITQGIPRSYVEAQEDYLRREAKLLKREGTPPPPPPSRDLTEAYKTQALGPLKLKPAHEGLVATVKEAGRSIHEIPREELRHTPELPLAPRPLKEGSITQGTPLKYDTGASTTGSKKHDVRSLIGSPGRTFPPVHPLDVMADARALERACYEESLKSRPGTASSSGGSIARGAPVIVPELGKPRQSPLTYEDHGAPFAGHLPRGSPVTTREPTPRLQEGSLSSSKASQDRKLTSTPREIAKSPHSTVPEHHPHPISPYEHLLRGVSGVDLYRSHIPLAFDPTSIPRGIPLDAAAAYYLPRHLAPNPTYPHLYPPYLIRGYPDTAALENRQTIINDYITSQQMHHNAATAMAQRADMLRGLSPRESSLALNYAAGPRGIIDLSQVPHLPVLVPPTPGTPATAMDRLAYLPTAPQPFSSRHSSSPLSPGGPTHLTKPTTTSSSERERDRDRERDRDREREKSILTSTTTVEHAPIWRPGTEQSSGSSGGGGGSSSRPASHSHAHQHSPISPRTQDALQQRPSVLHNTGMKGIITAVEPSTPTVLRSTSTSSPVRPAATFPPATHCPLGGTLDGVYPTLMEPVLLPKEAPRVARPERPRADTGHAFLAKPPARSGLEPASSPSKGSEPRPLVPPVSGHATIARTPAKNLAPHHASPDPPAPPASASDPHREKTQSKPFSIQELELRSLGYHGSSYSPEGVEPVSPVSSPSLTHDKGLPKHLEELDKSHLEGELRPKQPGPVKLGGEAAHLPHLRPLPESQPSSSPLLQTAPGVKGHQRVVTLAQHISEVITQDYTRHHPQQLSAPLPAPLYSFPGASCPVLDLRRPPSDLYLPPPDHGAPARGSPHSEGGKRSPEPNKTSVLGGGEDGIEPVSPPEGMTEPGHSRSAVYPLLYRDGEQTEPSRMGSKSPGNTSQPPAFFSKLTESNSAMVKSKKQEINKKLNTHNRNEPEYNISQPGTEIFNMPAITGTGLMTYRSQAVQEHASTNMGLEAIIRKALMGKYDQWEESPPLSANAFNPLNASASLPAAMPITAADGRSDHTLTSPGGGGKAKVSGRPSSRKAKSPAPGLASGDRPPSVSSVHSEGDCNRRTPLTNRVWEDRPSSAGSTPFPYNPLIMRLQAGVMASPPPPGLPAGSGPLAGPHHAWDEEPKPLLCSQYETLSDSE
ENDPOINT NAME: pIC50
Value format note: pIC50 is -log10 of concentration (mol/L); just state the number.

## Input Given the compound Cl.O=C(NO)c1cnc(N2CCC3(CCN(Cc4c[nH]c5ccccc45)C3)CC2)nc1 , write its reported pIC50.
## Output 8.52

---

ASSAY INFO: AUC (0 to t) in Balb/c mouse at 2 mg/kg, iv administered as single dose measured upto 24 hrs by LC-MS/MS analysis
Assay type: ADME, organism-based
Parameters: route intravenous, dose 2 mg/kg, time <=24
CONDITION LABEL: in vivo
ENDPOINT NAME: AUC(0-t) at 24 h (ng·h/mL)
Report the value in ng·h/mL with no unit label.

## Input Given the molecule Cl.O=C(NO)c1cnc(N2CCC3(CCN(Cc4c[nH]c5ccccc45)C3)CC2)nc1 , write its reported AUC(0-t) at 24 h.
## Output 117

---

ASSAY INFO: AUC (0 to t) in Balb/c mouse at 5 mg/kg, ip administered as single dose measured upto 24 hrs by LC-MS/MS analysis
Type: ADME, organism-based
Design: route intraperitoneal, dose 5 mg/kg, time <=24
CONDITION LABEL: in vivo
ENDPOINT NAME: AUC(0-t) at 24 h

## Input Given the molecule Cl.O=C(NO)c1cnc(N2CCC3(CCN(Cc4c[nH]c5ccccc45)C3)CC2)nc1 , write its reported AUC(0-t) at 24 h.
## Output 81.9 ng·h/mL

---

ASSAY INFO: Half life in Balb/c mouse at 10 mg/kg, po administered as single dose measured upto 24 hrs by LC-MS/MS analysis
Type: ADME, organism-based
CONDITION LABEL: in vivo
ENDPOINT NAME: half-life
In your response, the unit should come after the numeric value.

## Input Given the compound Cl.O=C(NO)c1cnc(N2CCC3(CCN(Cc4c[nH]c5ccccc45)C3)CC2)nc1 , write its reported half-life.
## Output 104 min

---

ASSAY INFO: Cmax in Balb/c mouse at 5 mg/kg, ip administered as single dose measured upto 24 hrs by LC-MS/MS analysis
Format: ADME, organism-based
Parameters: route intraperitoneal, dose 5 mg/kg, time <=24
CONDITION LABEL: in vivo
ENDPOINT NAME: Cmax (ng/mL)
Report the value in ng/mL with no unit label.

## Input Given the molecule Cl.Cn1cc(CNCC2CCN(c3ncc(C(=O)NO)cn3)CC2)c2ccccc21 [QUISINOSTAT HYDROCHLORIDE] , write its reported Cmax.
## Output 88.7

## Input Given the molecule Cl.O=C(NO)c1cnc(N2CCC3(CCN(Cc4c[nH]c5ccccc45)C3)CC2)nc1 , write its reported Cmax.
## Output 108

---

Tested on: HepG2
ASSAY INFO: Cytotoxicity against human HepG2 cells assessed as reduction in cell viability incubated for 72 hrs by cell titer glo assay
Assay type: cell-based
CONDITION LABEL: HepG2, 72 h
ENDPOINT NAME: pIC50
Value format note: pIC50 is -log10 of concentration (mol/L); just state the number.

## Input Given the compound O=C(NO)c1cnc(N2CCC3(CCN(Cc4cccc5ncccc45)C3)CC2)nc1 , write its reported pIC50.
## Output 6.13

## Input Given the compound O=C(NO)c1cnc(N2CCC3(CCN(Cc4cccc5ccccc45)C3)CC2)nc1 , write its reported pIC50.
## Output 7.04

## Input Given the compound Cn1nc(CN2CCC3(CCN(c4ncc(C(=O)NO)cn4)CC3)C2)c2ccccc21 , write its reported pIC50.
## Output 6.86

## Input Given the compound Cl.Cn1cc(CN2CCC3(CCN(c4ncc(C(=O)NO)cn4)CC3)C2)c2ncccc21 , write its reported pIC50.
## Output 6.07

## Input Given the compound O=C(NO)c1cnc(N2CCC3(CCN(Cc4ccc5ccc6cccc7ccc4c5c67)C3)CC2)nc1 , write its reported pIC50.
## Output 5.77

## Input Given the compound Cl.Cn1cc(CN2CCC3(CCN(c4ncc(C(=O)NO)cn4)CC3)C2)c2cccnc21 , write its reported pIC50.
## Output 6.55

## Input Given the compound O=C(NO)c1cnc(N2CCC3(CCN(Cc4c5ccccc5cc5ccccc45)C3)CC2)nc1 , write its reported pIC50.
## Output 6.78

## Input Given the compound O=C(NO)c1cnc(N2CCC3(CCN(Cc4cnc5ccccn45)C3)CC2)nc1 , write its reported pIC50.
## Output 5.71

## Input Given the compound O=C(NO)c1cnc(N2CCC3(CCN(Cc4ccsc4)C3)CC2)nc1 , write its reported pIC50.
## Output 5.98

## Input Given the compound O=C(NO)c1cnc(N2CCC3(CCN(CC4CCCC4)C3)CC2)nc1 , write its reported pIC50.
## Output 6.20

## Input Given the compound O=C(NO)c1cnc(N2CCC3(CCN(Cc4ccccn4)C3)CC2)nc1 , write its reported pIC50.
## Output 5.89

## Input Given the compound O=C(NO)c1cnc(N2CCC3(CCN(Cc4csc5ccccc45)C3)CC2)nc1 , write its reported pIC50.
## Output 7.10

## Input Given the compound O=C(NO)c1cnc(N2CCC3(CCN(Cc4ccc5ccccc5n4)C3)CC2)nc1 , write its reported pIC50.
## Output 6.49

## Input Given the compound O=C(NO)c1cnc(N2CCC3(CCN(Cc4ccncc4)C3)CC2)nc1 , write its reported pIC50.
## Output 5.49

## Input Given the compound O=C(NO)c1cnc(N2CCC3(CCN(Cc4cccc5cccnc45)C3)CC2)nc1 , write its reported pIC50.
## Output 6.66

## Input Given the compound O=C(NO)c1cnc(N2CCC3(CCN(Cc4cncc5ccccc45)C3)CC2)nc1 , write its reported pIC50.
## Output 6.99

## Input Given the compound Cl.Cn1cc(CN2CCC3(CCN(c4ncc(C(=O)NO)cn4)CC3)C2)c2ccccc21 , write its reported pIC50.
## Output 7.14

## Input Given the compound Cl.Cn1cc(CN2CCC3(CCN(c4ncc(C(=O)NO)cn4)CC3)C2)c2ccncc21 , write its reported pIC50.
## Output 6.10

---

Protein target, amino acids: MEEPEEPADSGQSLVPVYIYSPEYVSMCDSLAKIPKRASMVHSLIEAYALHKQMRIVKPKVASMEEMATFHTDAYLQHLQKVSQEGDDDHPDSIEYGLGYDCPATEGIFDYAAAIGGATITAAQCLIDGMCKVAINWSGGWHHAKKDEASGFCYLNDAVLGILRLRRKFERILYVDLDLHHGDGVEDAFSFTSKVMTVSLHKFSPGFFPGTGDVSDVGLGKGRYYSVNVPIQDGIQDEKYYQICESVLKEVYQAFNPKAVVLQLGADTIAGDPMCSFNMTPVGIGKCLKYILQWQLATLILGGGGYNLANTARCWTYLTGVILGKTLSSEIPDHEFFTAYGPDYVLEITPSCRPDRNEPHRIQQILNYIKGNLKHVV
ENDPOINT NAME: pIC50
Value format note: pIC50 is -log10 of concentration (mol/L); just state the number.

## Input Given the molecule Cl.O=C(NO)c1cnc(N2CCC3(CCN(Cc4c[nH]c5ccccc45)C3)CC2)nc1 , write its reported pIC50.
## Output 7.80

---

ASSAY INFO: Selectivity index, ratio of IC50 for cytotoxicity against human HEK293T cells assessed to IC50 for antiplasmodial activity against synchronized ring stage Plasmodium falciparum 3D7 infected in human erythrocytes
Assay type: toxicity, cell-based
CONDITION LABEL: read-out: Ratio IC50
What selectivity ratio was measured for each of the following?
I only need the number, thanks.

## Input Given the compound O=C(NO)c1cnc(N2CCC3(CCN(Cc4ccc5ccc6cccc7ccc4c5c67)C3)CC2)nc1 , write its reported selectivity ratio.
## Output 74

## Input Given the compound O=C(NO)c1cnc(N2CCC3(CCN(Cc4cccc5ccccc45)C3)CC2)nc1 , write its reported selectivity ratio.
## Output 35

## Input Given the compound O=C(NO)c1cnc(N2CCC3(CCN(Cc4ccncc4)C3)CC2)nc1 , write its reported selectivity ratio.
## Output 206

## Input Given the compound O=C(NO)c1cnc(N2CCC3(CCN(Cc4cnc5ccccn45)C3)CC2)nc1 , write its reported selectivity ratio.
## Output 245

## Input Given the compound Cl.O=C(NO)c1cnc(N2CCC3(CCN(Cc4c[nH]c5ccccc45)C3)CC2)nc1 , write its reported selectivity ratio.
## Output 75

## Input Given the compound O=C(NO)c1cnc(N2CCC3(CCN(Cc4ccccc4)C3)CC2)nc1 , write its reported selectivity ratio.
## Output 55

## Input Given the compound Cl.Cn1cc(CN2CCC3(CCN(c4ncc(C(=O)NO)cn4)CC3)C2)c2cnccc21 , write its reported selectivity ratio.
## Output 370

## Input Given the compound O=C(NO)c1cnc(N2CCC3(CCN(Cc4ccc5ccccc5c4)C3)CC2)nc1 , write its reported selectivity ratio.
## Output 118

## Input Given the compound O=C(NO)c1cnc(N2CCC3(CCN(Cc4ccc(-c5ccccc5)cc4)C3)CC2)nc1 , write its reported selectivity ratio.
## Output 21

## Input Given the compound O=C(NO)c1cnc(N2CCC3(CCN(Cc4csc5ccccc45)C3)CC2)nc1 , write its reported selectivity ratio.
## Output 25
